# Experimental target: T1, recombinant human GM-CSF protein (human, UniProt P04141 18-144)
# T1 construct: Bought recombinant protein (Genscript); also called biotinylated human GM-CSF protein
# T1 sequence (P04141 18-144 limits assumed): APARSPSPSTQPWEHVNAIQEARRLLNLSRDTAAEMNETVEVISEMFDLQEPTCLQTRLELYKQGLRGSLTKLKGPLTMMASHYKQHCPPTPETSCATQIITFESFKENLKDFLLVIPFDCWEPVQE
# Procedure details: SPR Biacore T200, antibody captured by anti-human Fc, GM-CSF as analyte, 25 C, 1:1 model
Observation type: kon (M⁻¹ s⁻¹)
Numbers only; they are read as M⁻¹ s⁻¹.

Some binders with known kon results, for comparison:
| Binder | kon [M⁻¹ s⁻¹] |
| --- | --- |
| Hu50C5-11 (antibody, V domains shown, Humanized; also called 35230Hu50C5-11) VH: EVQLVQSGAEVKKPGSSVKVSCKASGYIFSPYSIHWVRQAPGQGLEWIGYINPSTGYIEYNQHFKDRVTITADKSTSTAYMELRSLRSEDTAVYYCARGGDYEGYFDYWGQGTTVTVSS VL: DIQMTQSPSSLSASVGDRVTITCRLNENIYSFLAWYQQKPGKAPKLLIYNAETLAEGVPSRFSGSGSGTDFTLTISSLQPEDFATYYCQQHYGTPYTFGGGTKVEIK | 4.37e+06 |
| Hu50C5-19 (antibody, V domains shown, Humanized; also called 35230Hu50C5-19) VH: EVQLVQSGAEVKKPGSSVKVSCKASGYIFSPYSIHWVRQAPGQGLEWIGYINPSTGYIEYNQHFKDRTTLTADKSTSTAYMELRSLRSEDTAVYYCARGGDYEGYFDYWGQGTTVTVSS VL: DIQMTQSPSSLSASVGDRVTITCRLNENIYSFLAWYQQKPGKAPKLLVYNAETLAEDVPSRFSGSGSGTQFTLTISSLQPEDFATYYCQQHYGTPYTFGGGTKVEIK | 4.62e+06 |

Query: kon; subject: 50C5 chimera (antibody, V domains shown, Human constant regions (captured by anti-human Fc IgG); also called 35230Hu50C5-chimera; Hu50C5-chimera) VH: QVQLQQSAAELVRPGASVKMSCKASGYIFTPYSIHWIKQRPGQGLEWIGYINPSTGYIEYNQHFKDRTTLTADKSSSTAYMQLRSLTSEDSAVYYCARGGDYEGYFDYWGQGTTLTVSS VL: DIQMTQSPDSLSASVGETVTITCRLNENIYSFLAWYQQRQGKSPQLLVYNAETLAEDVPSRFSGSGSGTQFSLKISSLQTDDFGTYYCQQHYGTPYTFGGGTNLEIE
4.43e+06

Query: kon; subject: Hu23F4-25 (antibody, V domains shown, Humanized) VH: EVQLVQSGAEVKKPGASVKVSCKASGYTFTSHYLHWVRQAPGQGLEWMGWIFPGDDKTKYNEKFKGRVTMTSDTSISTAYMELSRLRSDDTAVYYCARGTKYLNWNFDVWGQGTTVTVSS VL: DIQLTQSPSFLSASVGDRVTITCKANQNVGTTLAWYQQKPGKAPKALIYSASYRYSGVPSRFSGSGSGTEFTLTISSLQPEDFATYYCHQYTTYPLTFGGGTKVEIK
635000
